- tested target: PDGFβ (Homo sapiens (Human), UniProt P09619)
- Sequence (P09619 33-1106): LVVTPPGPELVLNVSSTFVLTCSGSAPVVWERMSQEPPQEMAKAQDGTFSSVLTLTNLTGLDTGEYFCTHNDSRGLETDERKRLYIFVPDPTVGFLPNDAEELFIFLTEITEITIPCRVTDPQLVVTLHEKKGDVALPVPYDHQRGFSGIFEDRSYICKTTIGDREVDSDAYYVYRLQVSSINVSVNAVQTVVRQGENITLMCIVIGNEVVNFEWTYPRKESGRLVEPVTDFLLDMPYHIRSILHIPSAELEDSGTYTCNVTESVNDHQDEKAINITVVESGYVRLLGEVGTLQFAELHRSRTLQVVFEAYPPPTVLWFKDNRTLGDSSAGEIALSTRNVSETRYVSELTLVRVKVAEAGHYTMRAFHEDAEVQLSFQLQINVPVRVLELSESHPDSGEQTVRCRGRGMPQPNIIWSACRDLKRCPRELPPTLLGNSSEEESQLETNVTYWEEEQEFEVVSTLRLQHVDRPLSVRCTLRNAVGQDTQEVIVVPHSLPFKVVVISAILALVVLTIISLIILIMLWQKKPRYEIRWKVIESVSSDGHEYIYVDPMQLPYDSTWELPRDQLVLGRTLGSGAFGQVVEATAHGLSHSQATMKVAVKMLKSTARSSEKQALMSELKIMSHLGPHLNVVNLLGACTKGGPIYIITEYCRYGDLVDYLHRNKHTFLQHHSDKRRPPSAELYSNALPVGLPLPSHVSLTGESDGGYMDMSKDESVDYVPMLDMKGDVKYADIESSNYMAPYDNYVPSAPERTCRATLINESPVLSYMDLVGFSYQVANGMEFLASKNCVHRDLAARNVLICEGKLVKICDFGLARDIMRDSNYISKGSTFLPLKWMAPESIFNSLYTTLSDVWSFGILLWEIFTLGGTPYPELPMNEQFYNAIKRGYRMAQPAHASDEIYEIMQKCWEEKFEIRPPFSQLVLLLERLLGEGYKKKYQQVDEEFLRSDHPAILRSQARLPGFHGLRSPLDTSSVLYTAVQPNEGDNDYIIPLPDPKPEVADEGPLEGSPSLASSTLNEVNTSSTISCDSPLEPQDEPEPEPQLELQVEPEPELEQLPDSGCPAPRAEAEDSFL
- assay explanation: PDGF stimulated Ca2+ signal in vitro (PDGFβ cellular, FLIPR, NHDF-Ad)
- test settings: PDGF stimulation 10 ng/mL, intracellular calcium
// boundary case: IC50 equal to 90 nM maps to no; strictly smaller maps to yes

# molecule, group label
rows = [
    ("Cc1cccc(NC(=O)Nc2ccc(Oc3ccnc(-c4cc(C(=O)O)c[nH]4)c3)cc2)c1", "yes"),
    ("Cc1ccc(F)c(NC(=O)Nc2ccc(Oc3ccnc(-c4cc(C(=O)NCCCC(N)=O)c[nH]4)c3)cc2)c1", "yes"),
    ("O=C(Nc1ccc(Oc2ccnc(-c3cc(C(=O)O)c[nH]3)c2)cc1)Nc1ccc(Cl)c(C(F)(F)F)c1", "no"),
    ("Cc1cccc(NC(=O)Nc2ccc(Oc3ccnc(-c4cc(C(=O)N5CCC[C@@H](O)C5)c[nH]4)c3)cc2)c1 (stereo in doubt)", "yes"),
    ("Cc1ccc(F)c(NC(=O)Nc2ccc(Oc3ccnc(-c4cc(C(=O)NCCCC(=O)NCC(O)CO)c[nH]4)c3)cc2)c1 (stereo not shown)", "no"),
    ("Cc1ccc(F)c(NC(=O)c2cccc(Oc3ccnc(-c4cc(C(=O)O)c[nH]4)c3)c2)c1", "no"),
]

###

Entries annotated with measured IC50
- tested target: PDGFβ (Homo sapiens (Human), UniProt P09619)
- assay explanation: PDGF stimulated Ca2+ signal in vitro (PDGFβ cellular, FLIPR, NHDF-Ad)
- test settings: PDGF stimulation 10 ng/mL, intracellular calcium
recorded metric: IC50 (nM)

# molecule, measurement units, reported value
measured = [
    ("Cc1cccc(NC(=O)c2cccc(Oc3ccnc(-c4cc(C(=O)O)c[nH]4)c3)c2)c1", "nM", 105),
    ("Cc1ccoc1C(=O)Nc1cccc(Oc2ccnc(-c3cc(C(=O)NO)c[nH]3)c2)c1", "nM", 61),
    ("Cc1ccoc1C(=O)Nc1cccc(Oc2ccnc(-c3cc(C(=O)NCC(O)CO)c[nH]3)c2)c1 (stereo not drawn)", "nM", 73),
    ("Cc1cccc(NC(=O)Nc2ccc(Oc3ccnc(-c4cc(C(=O)N5CC[C@@H](O)C5)c[nH]4)c3)cc2)c1 (stereo in doubt)", "nM", 38),
    ("Cc1ccc(F)c(NC(=O)Nc2ccc(Oc3ccnc(-c4cc(C(=O)N=S(C)(C)=O)c[nH]4)c3)cc2)c1", "nM", 82),
    ("Cc1ccc(F)c(NC(=O)Nc2ccc(Oc3ccnc(-c4cc(C(=O)OCC(O)CO)c[nH]4)c3)cc2)c1 (stereo not drawn)", "nM", 32),
    ("Cc1ccc(F)c(NC(=O)Nc2ccc(Oc3ccnc(-c4cc(C(=O)NCCCO)c[nH]4)c3)cc2)c1", "nM", 32),
    ("Cc1cccc(NC(=O)Nc2ccc(Oc3ccnc(-c4cc(C(=O)NCC(O)CO)c[nH]4)c3)cc2)c1 (stereo not drawn)", "nM", 39),
    ("Cc1ccc(F)c(NC(=O)Nc2ccc(Oc3ccnc(-c4cc(C(=O)NO)c[nH]4)c3)cc2)c1", "nM", 43),
    ("Cc1ccc(F)c(NC(=O)Nc2ccc(Oc3ccnc(-c4cc(C(=O)O)c[nH]4)c3)cc2F)c1", "nM", 69),
    ("Cc1ccoc1C(=O)Nc1cccc(Oc2ccnc(-c3cc(C(=O)OCC(O)CO)c[nH]3)c2)c1 (stereo not drawn)", "nM", 39),
    ("CCNC(=O)c1c[nH]c(-c2cc(Oc3ccc(NC(=O)Nc4cccc(C)c4)cc3)ccn2)c1", "nM", 14),
    ("Cc1ccc(F)c(NC(=O)Nc2ccc(Oc3ccnc(-c4csc(C(=O)O)c4)c3)cc2)c1", "nM", 85),
    ("COC(=O)[C@@H]1CCCN1CCNC(=O)c1c[nH]c(-c2cc(Oc3ccc(NC(=O)Nc4cc(C)ccc4F)cc3)ccn2)c1", "nM", 8),
    ("Cc1ccoc1C(=O)Nc1cccc(Oc2ccnc(-c3cc(C(=O)N=S(C)(C)=O)c[nH]3)c2)c1", "nM", 94),
]

Source listed as patent US8614234B2.
